Data origin: patent US8686048B2

Entries and their melting point
property: melting point

1. CCSc1cccc(-c2cc(F)c(NC(=O)c3ccccc3C(=O)O)c(F)c2)c1 [Example 71]	137.8 to 142.1 °C
2. CC(C)COc1cccc(-c2cc(F)c(NC(=O)c3ccccc3C(=O)O)c(Cl)c2)c1 [Example 31]	202 to 205.5 °C
3. COc1cccc(-c2cc(F)c(NC(=O)c3nccnc3C(=O)O)c(F)c2)c1 [Example 6]	180.1 to 183.4 °C
4. O=C(O)c1ccccc1C(=O)Nc1ccc(-c2cccc(OC(F)(F)F)c2)cc1F [Example 22]	128.3 to 132.1 °C
5. CCCOc1cccc(-c2ccc(NC(=O)c3ccccc3C(=O)O)cc2)c1 [Example 81]	152 to 154 °C
6. CCc1c[nH]c2ccc(-c3cc(F)c(NC(=O)c4ccccc4C(=O)O)c(F)c3)cc12 [Example 75]	157.9 to 160.9 °C
7. O=C(O)c1cc(Cl)c(Cl)cc1C(=O)Nc1c(F)cc(-c2ccccc2Cl)cc1Cl [Example 27]	202.3 to 206.5 °C
8. CCCc1c[nH]c2ccc(-c3cc(F)c(NC(=O)c4ccccc4C(=O)O)c(F)c3)cc12 [Example 99]	76 to 80 °C

====

- test-summary: Single dose oral hepatotoxicity assay
- Format: in vivo, BALB/cJ mice
- cond: serum, 24 hr after 100 mg/kg po single dose, mice
As shown below, each of these compounds has a reported ALT value.
property: ALT (U/L)

1) CC(C)COc1cccc(-c2cc(F)c(NC(=O)c3ccccc3C(=O)O)c(Cl)c2)c1	65.1
2) O=C(O)c1ccccc1C(=O)Nc1c(F)cc(-c2cccc(OC3CCCC3)c2)cc1Cl	113
3) CCOc1cccc(-c2ccc(NC(=O)c3ccccc3C(=O)O)cc2)c1	84
4) CCc1c[nH]c2ccc(-c3cc(F)c(NC(=O)c4ccccc4C(=O)O)c(F)c3)cc12	93.9
5) CCCOc1cccc(-c2cc(F)c(NC(=O)c3ccccc3C(=O)O)c(Cl)c2)c1	87.9
6) CCCCOc1cccc(-c2cc(F)c(NC(=O)c3ccccc3C(=O)O)c(F)c2)c1	108.3
7) CCOc1cccc(-c2cc(F)c(NC(=O)c3ccccc3C(=O)O)c(F)c2)c1	113.6
8) CCCCOc1cccc(-c2cc(F)c(NC(=O)c3ccccc3C(=O)O)c(Cl)c2)c1	67.9

====

property: melting point

1. CCc1cccc(-c2ccc(NC(=O)c3ccccc3C(=O)O)cc2)c1	178 to 182 °C
2. CCSc1cccc(-c2c(F)c(F)c(NC(=O)c3ccccc3C(=O)O)c(F)c2F)c1	158 to 160 °C
3. CCOc1cccc(-c2cc(Cl)c(NC(=O)c3ccccc3C(=O)O)c(Cl)c2)c1	135.9 to 138.2 °C
4. O=C(O)c1ccccc1C(=O)Nc1c(F)cc(-c2cccc(OC(F)(F)F)c2)cc1F [Example 12]	148.2 to 151.4 °C
5. CCCCOc1cccc(-c2cc(F)c(NC(=O)c3ccccc3C(=O)O)c(F)c2)c1	119.3 to 123.3 °C
6. CCOc1cccc(-c2cc(F)c(NC(=O)c3ccccc3C(=O)O)c(Cl)c2)c1	135 to 140 °C
7. CCOc1cccc(-c2cc(F)c(NC(=O)c3cc(Cl)c(Cl)cc3C(=O)O)c(Cl)c2)c1	260 to 265 °C
8. CCOc1cccc(-c2ccc(NC(=O)c3ccccc3C(=O)O)c(F)c2)c1	151 to 157 °C
9. COc1cccc(-c2ccc(NC(=O)c3ccccc3C(=O)O)cc2)c1	243 to 247 °C
10. O=C(O)c1ccccc1C(=O)Nc1c(F)cc(-c2cccc(OC3CC3)c2)cc1F	125 to 127 °C
11. CCOc1cccc(-c2cc(F)c(NC(=O)c3nccnc3C(=O)O)c(Cl)c2)c1	148 to 153 °C
12. CCOc1cccc(-c2cc(F)c(NC(=O)c3ccncc3C(=O)O)c(F)c2)c1	219 to 221 °C
13. CCOc1cccc(-c2cc(F)c(NC(=O)c3cccc(C)c3C(=O)O)c(F)c2)c1	138 to 140 °C
14. COc1cccc(-c2cc(F)c(NC(=O)c3ccccc3C(=O)O)c(F)c2)c1	168 to 173 °C
15. O=C(O)c1ccccc1C(=O)Nc1ccc(-c2cccc(OC(F)(F)F)c2)cc1	154.4 to 158.5 °C
16. COc1cccc(-c2cc(F)c(NC(=O)c3cc(Cl)c(Cl)cc3C(=O)O)c(F)c2)c1	158.6 to 162.2 °C
17. O=C(O)c1ccccc1C(=O)Nc1c(F)cc(-c2ccccc2F)cc1F	152.2 to 156.3 °C
18. O=C(O)c1ccccc1C(=O)Nc1c(Cl)cc(-c2ccccc2F)cc1Cl	185.4 to 193.6 °C
